Entries and their MIC values follow.
- System: Pseudomonas aeruginosa IFO3445
- ASSAY NAME: MIC, twofold agar dilution
- Format: cell-based
- CONDITION LABEL: Gram -, 10^6 cells/ml, 18 hrs, 37° C., read-out: Minimum inhibitory concentration (MIC)
- Protocol: Minimum inhibitory concentrations (MIC) were determined by the twofold agar dilution method (Chemotherapy, 29(1), 76(1981)). Overnight cultures in Mueller-Hinton broth were suspended by buffered saline gelatine. One loopful of the bacterial suspension (10^6 or 10^8 colony-forming units/ml) was incubated onto the test compound-containing plates. The plates were incubated for 18 hrs. at 37° C. The MIC was the lowest concentration of the drug that inhibited visible growth.
ENDPOINT LABEL: MIC (µg/mL)

[[record]]
compound = "CCn1cc(C(=O)O)c(=O)c2cc(F)c(N3CCNC(C)C3)c(F)c21 (centres unmarked)"
endpoint_label = "MIC"
recorded_measurement = 0.78

[[record]]
compound = "CCn1cc(C(=O)O)c(=O)c2cc(F)c(N3CCNC(C)C3)cc21 (centres unmarked)"
endpoint_label = "MIC"
recorded_measurement = 0.78

[[record]]
compound = "CCn1cc(C(=O)O)c(=O)c2cc(F)c(N3CCNCC3)cc21 [Reference Drug, norfloxacin, reference compound]"
endpoint_label = "MIC"
recorded_measurement = 0.78

[[record]]
compound = "CC1CN(c2c(F)cc3c(=O)c(C(=O)O)cn(CCF)c3c2F)CCN1 (centres unmarked)"
endpoint_label = "MIC"
recorded_measurement = 0.78

[[record]]
compound = "CCn1cc(C(=O)O)c(=O)c2cc(F)c(N3CC(C)NC(C)C3)c(F)c21 (centres unmarked)"
endpoint_label = "MIC"
recorded_measurement = 3.13


* * *

Recorded MIC values (Proteus vulgalis OX-19) are given below.
ENDPOINT LABEL: MIC (µg/mL)

[[record]]
compound = "CCn1cc(C(=O)O)c(=O)c2cc(F)c(N3CC(C)NC(C)C3)c(F)c21 (centres unmarked) [Example 20]"
recorded_measurement = 0.1

[[record]]
compound = "CCn1cc(C(=O)O)c(=O)c2cc(F)c(N3CCNC(C)C3)c(F)c21 (centres unmarked) [Example 4]"
recorded_measurement = 0.05

[[record]]
compound = "CCn1cc(C(=O)O)c(=O)c2cc(F)c(N3CCNCC3)cc21 [Reference Drug, norfloxacin, reference compound]"
recorded_measurement = 0.05

[[record]]
compound = "CC1CN(c2c(F)cc3c(=O)c(C(=O)O)cn(CCF)c3c2F)CCN1 (centres unmarked) [Example 16]"
recorded_measurement = 0.2

[[record]]
compound = "CCn1cc(C(=O)O)c(=O)c2cc(F)c(N3CCNC(C)C3)cc21 (centres unmarked) [Example 1]"
recorded_measurement = 0.05


* * *

MIC values, listed per item
- Tested on: Salmonella typhimurium IID 971
- ASSAY NAME: MIC, twofold agar dilution
- Assay type: cell-based
- CONDITION LABEL: Salmonella enterica; Gram -; 10^6 cells/ml; 18 hrs, 37° C.; read-out: Minimum inhibitory concentration (MIC)
ENDPOINT LABEL: MIC

[[record]]
compound = "CC1CN(c2c(F)cc3c(=O)c(C(=O)O)cn(CCF)c3c2F)CCN1 (centres unmarked)"
recorded_measurement = "0.2 µg/mL"

[[record]]
compound = "CCn1cc(C(=O)O)c(=O)c2cc(F)c(N3CCNCC3)cc21 [Reference Drug, norfloxacin, reference compound]"
recorded_measurement = "0.05 µg/mL"

[[record]]
compound = "CCn1cc(C(=O)O)c(=O)c2cc(F)c(N3CCNC(C)C3)c(F)c21 (centres unmarked)"
recorded_measurement = "0.05 µg/mL"

[[record]]
compound = "CCn1cc(C(=O)O)c(=O)c2cc(F)c(N3CC(C)NC(C)C3)c(F)c21 (centres unmarked)"
recorded_measurement = "0.2 µg/mL"

[[record]]
compound = "CCn1cc(C(=O)O)c(=O)c2cc(F)c(N3CCNC(C)C3)cc21 (centres unmarked)"
recorded_measurement = "0.1 µg/mL"

